Data credit: ChEMBL document CHEMBL3988442

Below, each entry is listed alongside its reported Percent Effect.
test system: Wolbachia pipientis; assay: Anti-Wolbachia Cell-Based Screen; type: functional; set-up: scale not given: in the data most compounds retested in dose-response had high values; details: 5 µM
Among all 48,000 compounds or so, about 13,000 (27%) showed an effect of 50% or more. The list shows a part of the results.
QUANTITY KIND: Percent Effect (%)

• CN(Cc1ccc2nsnc2c1)CC1(O)CNCCOC1 (stereo unspecified) = -20.02
• Cc1nn(-c2ccccc2)cc1C(=O)N1CCCN2CCCC2C1 (stereo unspecified) = 6.19
• O=C(c1cc(-n2cccn2)ccc1Cl)N1CCC(N2CCCC2=O)CC1 = 95.9
• CCN(CC)C1CCN(C(=O)c2cc(-n3cccn3)ccc2Cl)CC1 = 93.46
• CCN(CC)[C@H]1COC[C@@H]2CN(Cc3cnn(C)c3)C[C@@H]21 = 13.67
• O=C(c1cccc(-n2cccn2)c1)N1CCOC(CCO)C1 (stereo unspecified) = -0.5625
• OC1(CN(Cc2cccnc2)C2CCCCC2)CNCCOC1 (stereo unspecified) = 96.56
• CC(C)CCC(=O)N1CCN(C(=O)c2ccc(-n3cccn3)cc2)CC1 = -3.976
• CN(Cc1cnn(C)c1)S(=O)(=O)N1CCCCC1 = -3.727
• O=C(c1ccc(-n2cccn2)cc1Cl)N1CCCC(O)(CO)C1 (stereo unspecified) = -12.88
• Cn1cc(CN(CC2(O)CCNC2)C2CCCCC2)cn1 (stereo unspecified) = 118.9

====

test system: Wolbachia pipientis; assay: Anti-Wolbachia Cell-Based Screen; type: functional; set-up: scale not given: in the data most compounds retested in dose-response had high values; details: 5 µM
In all, about 48,000 compounds went through this assay and about 13,000 (27%) showed an effect of 50% or more. The list shows a part of the results.
QUANTITY KIND: Percent Effect (%)

* COCc1nc(CN2C(=O)OC[C@@H]2C(C)C)no1 | 7.812
* COCc1nc(Cn2ncn3cccc3c2=O)no1 | 10.93
* COCc1noc(Cn2c(C)cc(C(F)(F)F)cc2=O)n1 | 123.4
* O=C(Nc1ccccc1)N1CCn2c(nnc2C2CCCN2)C1 (configuration not stated) | 106.2
* Cc1nn(C)c(C)c1OCC(=O)NCC(O)c1ccsc1 (configuration not stated) | 4.904
* O=C(Nc1ccccc1)N1CCn2c(nnc2C2CCNCC2)C1 | 105.9
* CC(C)NC(=O)C(c1ccccc1)N1CCn2c(nnc2C2CC2)C1 (configuration not stated) | 0.9151
* Cc1csc(-c2cccc(NC(=O)NCC(C)(C)C(N)=O)c2)n1 | 1.71
* CCN(C)CC1CCN(C(=O)Nc2ccc(-c3csnn3)cc2)C1 (configuration not stated) | -9.21
* Cc1cnn(CCCn2c(C)cc(C(F)(F)F)cc2=O)c1 | -18.2
* Cc1cc(C(F)(F)F)cc(=O)n1Cc1nc(C(C)C)no1 | 99.71
* Cc1ncc(CNCC2CCC(C(N)=O)CC2)n1-c1ccccc1 (configuration not stated) | -1.319

====

tested on: Wolbachia pipientis; assay: Anti-Wolbachia Cell-Based Screen; assay type: functional; design: scale not given: in the data most compounds retested in dose-response had high values; settings: 5 µM
Out of some 48,000 compounds screened, about 13,000 (27%) showed an effect of 50% or more. The list shows a part of the results.
QUANTITY KIND: Percent Effect (%)

• O=C(CSCc1ccncc1)NCc1csc(Br)c1 = 146.4
• CCOc1ccc(NC(=O)c2oc(CC)cc2C)cc1CO = -16.02
• CC(=O)N1CCN(C(=O)NCc2csc(Br)c2)CC1 = 1.629
• O=C(NCc1csc(Br)c1)c1ccncc1 = 3.838
• O=C(CCc1ccncc1)NCc1csc(Br)c1 = 90.69
• CN(C)C1CN(C(=O)Nc2cccc(OC(F)F)c2)C1 = -11.25
• CC(C)c1cc2c(O)nc(CSCC(=O)NCc3ccncc3)nc2s1 = 17.11

====

Below, each entry is listed alongside its reported Percent Effect.
system: Wolbachia pipientis; assay: Anti-Wolbachia Cell-Based Screen; assay type: functional; parameters: scale not given: in the data most compounds retested in dose-response had high values; conditions: 5 µM
The campaign covered roughly 48,000 compounds. About 13,000 (27%) showed an effect of 50% or more. Some of the results follow.
QUANTITY KIND: Percent Effect (%)

• Cc1cc(CN(CCO)c2ccc(Br)cc2)on1 = -2.085
• Cc1c(C2CCOC(C)(C)C2)nc(N)c(C#N)c1-c1ccc(O)cc1 (stereo unspecified) = 105.2
• O=C(O)C(F)(F)F.O=C1N(CC2CC2)CCC12CCN(CC1CC1)CC2 = 11.64
• COCCN1CCC2(CCCN(Cc3ccoc3)C2)C1=O.O=C(O)C(F)(F)F (stereo unspecified) = 89.97
• O=C(Nc1nnn[nH]1)c1ccc(I)c(F)c1 = 14.38
• O=C(O)C(F)(F)F.O=C1N(CC2CC2)CCC12CCN(Cc1ccoc1)CC2 = 112.5
• CC(C(=O)NC1(C#N)CCCCC1)N1CCc2c(ncn2C)C1 (stereo unspecified) = -1.256
• CN(C)C(=O)CN1CCC2(CCCN(Cc3ccoc3)C2)C1=O (stereo unspecified) = -23.42
• CCOCCNC(=O)c1cccc(S(=O)(=O)NC[C@@H]2C[C@H](F)CN2)c1 = -1.824
• CNC(=O)[C@H]1C[C@@H]2CN(Cc3ccc(OC)cc3)C[C@H]1O2.O=C(O)C(F)(F)F = 98.44
• CNC(=O)[C@H]1CCS(=O)(=O)[C@@H]2CN(Cc3ccc(OC)cc3)C[C@H]12 = 0.06663

====

tested on: Wolbachia pipientis; assay: Anti-Wolbachia Cell-Based Screen; type: functional; set-up: scale not given: in the data most compounds retested in dose-response had high values; conditions: 5 µM
Among all 48,000 compounds or so, about 13,000 (27%) showed an effect of 50% or more. This is one part of the list.
Below, each entry is listed alongside its reported Percent Effect.
QUANTITY KIND: Percent Effect

- COC(=O)C1CCN(CC2(c3ccc(C)cn3)CCNCC2)CC1: -5.791%
- O=C(CCc1ccccc1Br)N1CC(S(=O)(=O)C2CCCCC2)C1: 3.843%
- O=C(Nc1ccc(CC(=O)N2CCCC2)cc1)NC1CC1: 116.7%
- COc1ccc(-c2cnc(N(C)C)nc2C2CNCCO2)cc1.Cl (configuration not stated): 76.7%
- Cc1cnc(-c2nc(O)c3c(n2)CN(C(=O)CC2CCCC2)CC3)cn1: 148.5%
- COc1ccccc1C(=O)Nc1cc(CC(C)C)nn1C: 100.2%
- CNC(=O)c1nc2c(s1)CCN(C(=O)c1cccnc1)CC2.O=C(O)C(F)(F)F: -13.23%
- COc1ccc(F)cc1CSCC(=O)N(C)CCC#N: -1.773%
- Cc1ccc(C2(O)CCN(C(=O)Cn3cc(C)c(=O)[nH]c3=O)CC2)nc1: 116.3%
- COc1cc(CN(Cc2ccccn2)CC(C)C)cc2c1OCO2: -37.75%
- O=C(NC1(c2nnn(CC3CC3)n2)CCCC1)c1ccccc1: -31.69%
- Cc1ccc(NC2(C(=O)NCc3c(C)n[nH]c3C)CCCC2)cc1: 1.889%
- N#Cc1ccc(N2CCCN(CC(N)=O)CC2)cc1: -2.311%
- COCc1cc(CNC(=O)c2c(O)cccc2O)n[nH]1: 12.71%
- COc1ccc(CN(C(=O)C(C)SC)c2cnn(C)c2)c(OC)c1 (configuration not stated): -2.56%
- Cc1cc(CNc2cc(Cl)ccc2Cl)no1: -3.438%
- CN(C)c1ccc(CN(CCCn2ccnc2)Cc2c[nH]cn2)cc1.O=C(O)CC(O)(CC(=O)O)C(=O)O: -12.92%
- Cc1cc(F)c(S(=O)(=O)N(C)CCn2cccn2)cc1F: -6.407%
- CC(C)Cc1cc(C(=O)NC(C)(CO)CO)n(C)n1: 11.8%
- COc1ccc(-c2ccnc3nc(N4CCCCC4)[nH]c(=O)c23)cc1: 107.2%
- COC(=O)CNC(=O)C(C(C)C)n1cnc2cc(F)c(F)cc21 (configuration not stated): -6.926%
- NC(=O)N1CCCC(C(=O)NCCOc2ccc(F)c(F)c2)C1 (configuration not stated): -0.02905%
- CC(O)CC(C)(C)CNC(=O)NCc1cccc(-n2cncn2)c1 (configuration not stated): -1.907%
- Cc1occc1C(=O)N1CCC(C(O)c2ccc(Cl)cc2)CC1 (configuration not stated): -7.182%
- Cc1ccc(C2(O)CCN(C(=O)CCn3c(C)cccc3=O)CC2)nc1: 106.7%
- Cc1cc(CNC(=O)CC2CN(C(=O)OC(C)(C)C)C2)ccc1F: -41.83%
- CN(C)c1ncc(-c2ccc(F)cc2)c(C2CNCCO2)n1.Cl (configuration not stated): 112.1%
- NC(=O)N1CCCC(C(=O)NCCOc2ccc(F)cc2F)C1 (configuration not stated): -7.563%
- O=S(=O)(NCC1(O)CCOc2ccccc21)c1ccccc1Br (configuration not stated): 15.3%
- Cc1ccc(-c2noc(CN3CCOC(Cn4cncn4)C3)n2)cc1 (configuration not stated): -2.106%
- Cc1cnc2n(c1=O)C(CC(=O)NCc1ccc(Cl)cc1)CS2 (configuration not stated): 120.8%
- Cc1nc2sccn2c1CN(CCCN(C)C)Cc1ccco1.O=C(O)CC(O)(CC(=O)O)C(=O)O: 131.3%
- CC(C)Cc1cc(NC(=O)c2ccccc2F)n(C)n1: 99.33%
- CC(C)N(C)S(=O)(=O)N(Cc1cccs1)Cc1cccs1: -8.549%
- COc1ccc(-c2ccnc3c2C(=O)CCC3)cc1: -3.402%
- Cn1cc(-c2nc(CN3CCOC(Cn4cncn4)C3)cs2)cn1 (configuration not stated): 113.5%
- O=C(C1SCCc2sccc21)N1CCN(CCO)CC1 (configuration not stated): 1.361%
- Cc1cn(CC(=O)N(C)Cc2cccc3ncccc23)c(=O)[nH]c1=O: -19.07%
- O=C(CN1CCS(=O)(=O)CC1)NCc1cccc(Br)c1: -5.799%
- CC(=O)CN1CCC2(CC1)c1ccccc1[C@@H](N1CCSCC1)[C@@H]2O: -3.937%
- Cc1cccc(=O)n1CCC(=O)N(C)Cc1cccc2ncccc12: -4.376%
- CC(=O)N1CCCC(C(=O)NCCOc2cc(C)cc(C)c2)C1 (configuration not stated): 99.72%
- O=C(CCCn1cncn1)N1CCC2(CC1)[C@H](O)C[C@@H]2OCCO: -4.804%
- Nc1cc2c(nn1)CCN(C(=O)CC1CCCC1)C2: -4.566%
- CN(C)c1ncc(-c2cncnc2)c(C2CNCCO2)n1.Cl (configuration not stated): 130%
- CC/N=c1\nc(NCC)nc2n1C(O)(Nc1cccc(Cl)c1Cl)CS2 (configuration not stated): 212.9%
- CCN1CCC(Cn2ccc3ccc(C(=O)OC)cc3c2=O)C1 (configuration not stated): -7.454%
